Test system: EBC-1
TEST_DESCRIPTION: relative viability (nuclei count vs DMSO), 5 days (fraction); higher = more cells survive
SETUP_CONDITIONS: first compound 0.08 µM
VALUE_KIND: relative viability

MOLECULE	VALUE_KIND	OBS_VALUE
Cc1cnc(-c2cnc(NCCNc3ccc(C#N)cn3)nc2-c2ccc(Cl)cc2Cl)[nH]1 + COc1cc2c(Oc3ccc(NC(=O)C4(C(=O)Nc5ccc(F)cc5)CC4)cc3F)ccnc2cc1OCCCN1CCOCC1 [Foretinib] (partner 0.25 µM)	relative viability	0.0986
Cc1cnc(-c2cnc(NCCNc3ccc(C#N)cn3)nc2-c2ccc(Cl)cc2Cl)[nH]1 + C[C@]1(O)C[C@@H](c2nc(-c3ccc4ccc(-c5ccccc5)nc4c3)c3c(N)nccn32)C1 [Linsitinib] (partner 1 µM)	relative viability	0.913
Cc1cnc(-c2cnc(NCCNc3ccc(C#N)cn3)nc2-c2ccc(Cl)cc2Cl)[nH]1 + Cc1nc(NC(=O)N2CCC[C@H]2C(N)=O)sc1-c1ccnc(C(C)(C)C(F)(F)F)c1 [Alpelisib] (partner 2 µM)	relative viability	0.796

Hello, the source for this data is the supplement of paper PMC10307832, in case you need it.
